- Test system: Human immunodeficiency virus 1
- protocol_details: MMV: HIV CXCR4-tropic env NL4-3 pseudovirus assay produces luciferase signal in lieu of replicating viral particles Day 3 pi, U87-CD4-CXCR4, % inhibition at 5 mM compound
- Format: functional
- Design: dose or concentration left out as unconfirmed
- conditions: Human immunodeficiency virus 1, NL4-3, U87.CD4.CXCR4, 72 h
endpoint_name: inhibition (%)
Reply numerically in %, unit not repeated.

Enquiry: // returns reported inhibition for input CC(NCc1ccccc1)c1cc(Cl)ccc1O (stereo unspecified)
Return: 6

Enquiry: Report inhibition for O=C(Cc1ccccc1)NC(c1ccc(Cl)cc1)c1c(O)ccc2ccccc12 (stereo unspecified) please.
Return: 3

Enquiry: // query inhibition value for entry "COc1ccccc1NC1=C(N2CCCCC2)C(=O)c2ccccc2C1=O"
Return: 5

Reference for the values: ChEMBL document CHEMBL3301472
